SYSTEM_NAME: acyl CoA:cholesterol acyltransferase (ACAT)
ASSAY_TEXT: Assay for ACAT inhibitory activity using hepatic microsomes, cholesterol and 14C-labeled oleoyl-CoA
Assay type: biochemical
EXPERIMENTAL_CONDITIONS: calculated from the ng/ml value and molecular weight
MEASURED_PROPERTY: IC50 (nM)

• CC(=O)OCC1(C)C2C[C@H](OC(C)=O)[C@@]3(C)Oc4cc(-c5ccccc5)oc(=O)c4[C@H](O)C3[C@@]2(C)CC[C@@H]1OC(C)=O (stereo partly shown) = 86

----------
Test system: acyl CoA:cholesterol acyltransferase (ACAT)
ASSAY_TEXT: Assay for ACAT inhibitory activity using hepatic microsomes, cholesterol and 14C-labeled oleoyl-CoA
Type: biochemical
EXPERIMENTAL_CONDITIONS: concentration 100 μg/ml
Is ACAT inhibitory activity at least 90%? Then label 1. If not, label 0.

* CC(C)c1cccc(C(C)C)c1OC(=O)NS(=O)(=O)Oc1c(C(C)C)cccc1C(C)C [Formula 8] | label 1
* Cc1cc(Cc2cc(C)cc(C(C)(C)C)c2O)c(O)c(C(C)(C)C)c1 [Formula 9] | label 1
* CCCCCCCC/C=C\CCCCCCCC(=O)Nc1c(OC)cc(OC)cc1OC [Formula 7] | label 1
* O=C(/C=C/C=C/c1ccc2c(c1)OCO2)N1CCCCC1 [Formula 10] | label 0
